- test-system: Palmitoleoyl-protein carboxylesterase NOTUM (Homo sapiens, UniProt Q6P988, C330S)
- Sequence (Q6P988 20-496 C330S limits assumed): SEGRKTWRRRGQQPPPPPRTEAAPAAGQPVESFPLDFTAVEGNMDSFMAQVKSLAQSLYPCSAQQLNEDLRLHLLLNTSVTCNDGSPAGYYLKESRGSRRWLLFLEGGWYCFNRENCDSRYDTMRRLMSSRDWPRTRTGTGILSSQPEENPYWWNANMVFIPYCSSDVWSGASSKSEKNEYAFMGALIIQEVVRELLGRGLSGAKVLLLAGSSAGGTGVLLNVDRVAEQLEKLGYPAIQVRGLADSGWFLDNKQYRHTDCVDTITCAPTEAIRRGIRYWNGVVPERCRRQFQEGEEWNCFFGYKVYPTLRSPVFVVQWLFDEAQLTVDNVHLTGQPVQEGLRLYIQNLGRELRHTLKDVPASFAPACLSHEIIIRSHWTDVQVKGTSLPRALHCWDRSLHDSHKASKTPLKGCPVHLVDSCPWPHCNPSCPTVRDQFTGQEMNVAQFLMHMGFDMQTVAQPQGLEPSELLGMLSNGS
- experiment-notes: Inhibition of human Notum (S81 to T451 residues) Cys330Ser mutant expressed in HEK293S GnTI cells using OPTS as substrate incubated for 40 mins by fluorescence based assay
measured-attribute: pIC50
API: returns pIC50 as number; meaning -log10 of concentration in mol/L.

The cases that follow already have their pIC50 on record.
{"columns": ["molecule", "measured-attribute", "numeric-value"],
 "data": [
  ["CN1CN(C(=O)C2CCN(c3ccc(Cl)c(C(F)(F)F)c3)C2)CC1=O (stereo unspecified)", "pIC50", 5.85],
  ["O=C(O)C1CCN(c2ccc(Cl)c(Cl)c2Cl)C1 (racemic)", "pIC50", 6.22],
  ["Cc1cc(C(=O)O)c(C)n1C1CC1", "pIC50", 5.20]
]}

pIC50 lookup needed for Cc1ccccc1-n1c(C)cc(C(=O)O)c1C , thanks.
5.66

For the molecule O=C(O)C1CCN(c2cccc(Cl)c2Cl)C1 (racemic) , what pIC50 is on record?
5.10

So what's the measured pIC50 for this one? Cc1cc(C(=O)O)c(C)n1-c1cccc(C#N)c1F
6.20

---

- test-system: Palmitoleoyl-protein carboxylesterase NOTUM (Homo sapiens, UniProt Q6P988, C330S)
- experiment-notes: Inhibition of human Notum (S81 to T451 residues) Cys330Ser mutant expressed in HEK293S GnTI cells using OPTS as substrate incubated for 40 mins by fluorescence based assay
pIC50: −log10 of the molar value.
Collected pIC50 values appear next to each entry.

These solved cases illustrate the format of a correct answer.
{"columns": ["smiles-entry", "pIC50"],
 "data": [
  ["Cc1c(C(=O)O)ccn1Cc1ccccc1", 5.51],
  ["O=C(O)c1cc[nH]c1", "< 4.00"]
]}

// switching to the query compound
Which pIC50 is listed for Cc1cc(C(=O)O)c(C)[nH]1 ?
< 4.00
